test.description: in vivo
cond: SD, rat
Positions of bridges follow the written chain, without caps; N, C: chain ends. Non-standard residues stand in square brackets, D forms with d. Residues, ends and D or L forms follow the SMILES beside them. *: point of attachment. Heptanoyl(5-Me) = CCC(C)CCCC(=O)*; Dab = NCC[C@H](N)C(=O)O
metric.name: Cmax (ng/mL)
Numbers only here, please. The scale is ng/mL.

Fill in the blank: the reported Cmax of CCC(C)CCCC(=O)N[C@@H](CCN)C(=O)N[C@H](C(=O)N[C@@H](CCN)C(=O)N[C@H]1CCNC(=O)[C@H]([C@@H](C)O)NC(=O)[C@H](CCN)NC(=O)[C@H](CCN)NC(=O)[C@H](CC(C)C)NC(=O)[C@@H](CC(C)C)NC(=O)[C@H](CCN)NC1=O)[C@@H](C)O (stereo partly drawn) ({Heptanoyl(5-Me)}-[Dab]T[Dab][Dab][Dab][dL]L[Dab][Dab]T; lactam 4-C) is ____.
10300
